Sequence of the target: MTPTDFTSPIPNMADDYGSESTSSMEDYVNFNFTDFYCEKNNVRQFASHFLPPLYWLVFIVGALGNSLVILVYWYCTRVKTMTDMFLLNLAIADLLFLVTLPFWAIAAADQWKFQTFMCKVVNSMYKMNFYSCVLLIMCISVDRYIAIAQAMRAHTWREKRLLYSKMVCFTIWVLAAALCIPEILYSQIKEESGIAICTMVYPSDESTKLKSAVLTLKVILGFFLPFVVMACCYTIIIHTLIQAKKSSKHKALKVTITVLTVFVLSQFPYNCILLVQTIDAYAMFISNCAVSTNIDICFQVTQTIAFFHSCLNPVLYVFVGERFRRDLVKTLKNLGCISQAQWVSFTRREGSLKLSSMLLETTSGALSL
Mark each entry y if its IC50 sits below 100 nM, and n for all others.

itemsmiles=CNc1ncc(O)c(-c2cc(Cl)ccc2NS(=O)(=O)c2ccc(C(C)(C)C)cc2)n1 classlabel=y
itemsmiles=CC(C)(C)c1ccc(S(=O)(=O)Nc2ccc(Cl)cc2-c2nccnc2N)cc1 classlabel=y
itemsmiles=CC(C)(C)c1ccc(S(=O)(=O)Nc2ccc(Cl)cc2-c2nc(NCCO)ncc2O)cc1 classlabel=n
itemsmiles=CNc1cnc(-c2cc(Cl)ccc2NS(=O)(=O)c2ccc(C(C)(C)C)cc2)c(NCCO)n1 classlabel=n
itemsmiles=CC(C)(C)c1ccc(S(=O)(=O)Nc2ccc(Cl)cc2-c2nccnc2NCC(=O)O)cc1 classlabel=n
itemsmiles=CC(C)(C)c1ccc(S(=O)(=O)Nc2ccc(Cl)cc2-c2nnccc2N)cc1 classlabel=y
itemsmiles=CC(C)(C)c1ccc(S(=O)(=O)Nc2ccc(Cl)cc2-c2ncccc2N)cc1 classlabel=y
itemsmiles=COc1ccnc(-c2cc(Cl)ccc2NS(=O)(=O)c2ccc(C(C)(C)C)cc2)c1 classlabel=n
itemsmiles=CC(C)(C)c1ccc(S(=O)(=O)Nc2ccc(Cl)cc2-c2ncnc(CO)c2O)cc1 classlabel=y
itemsmiles=CC(C)(C)c1ccc(S(=O)(=O)Nc2ccc(Cl)cc2-c2ncnc(N)c2O)cc1 classlabel=y

Just for reference, ChEMBL document CHEMBL3603812 is where these values come from.
